protocol-summary: The dissociation constant of the free compound in 1: 1 dioxane-water mixture.
Type: ADME
readout: pKa
Field format: numeric only.

[Q] Let me know recorded pKa for COC1=C(N)C(=O)c2nc(-c3nc(C(=O)O)c(C)c(-c4ccc(OC)c(OC)c4O)c3N)ccc2C1=O [STREPTONIGRIN] , thanks.
[A] 6.5

----------
protocol-summary: The dissociation constant at pH 3 using potentiometric titration in 100 uM of compound in 0.15 M KCl at 25 degrees Centigrade
Assay type: ADME
test-context: 0.15 M KCl solution
readout: pKa at 100 µM
Please reply with the value in numeric form only.

[Q] Please report the measured pKa at 100 µM for COC1=C(N)C(=O)c2nc(-c3nc(C(=O)O)c(C)c(-c4ccc(OC)c(OC)c4O)c3N)ccc2C1=O
[A] 4.7
